src = ChEMBL document CHEMBL1140577

Tested on: NIH3T3 (Mus musculus)
Test Protocol: Cytotoxicity against mouse NIH3T3 cells after 72 hrs by MTT assay
Assay Conditions: NIH3T3, 72 h
Assay Readout: IC50

Q: Endpoint output: IC50 of C#CCn1cc(C(=O)NCCCOC(=O)[C@H](C)NC(=O)OC(C)(C)C)c(=O)c2ccc(Cl)nc21 . Value?
Result: 9.2 µM

Q: And the next one, C#CCn1cc(C(=O)N[C@@H](C)CCOC(=O)[C@H](C)NC(=O)OC(C)(C)C)c(=O)c2ccc(Cl)nc21 ?
Result: > 10 µM

Q: And the next one, C#CCn1cc(C(=O)NCCCOC(=O)CNC(=O)OC(C)(C)C)c(=O)c2cccnc21 ?
Result: > 10 µM

Q: And the next one, C#CCn1cc(C(=O)NCCCOC(=O)[C@H]2CCCN2C(=O)OC(C)(C)C)c(=O)c2ccc(C)nc21 ?
Result: > 10 µM

Q: And the next one, C#CCn1cc(C(=O)N[C@@H](C)CCOC(=O)[C@H]2CCCN2C(=O)OC(C)(C)C)c(=O)c2ccc(Cl)nc21 ?
Result: > 10 µM

Q: And the next one, C#CCn1cc(C(=O)NCCCOC(=O)[C@H]2OC(C)(C)N(C(=O)OC(C)(C)C)[C@@H]2c2ccccc2)c(=O)c2ccc(Cl)nc21 ?
Result: > 10 µM

Q: And the next one, C#CCn1cc(C(=O)NCCCOC(=O)[C@H]2CCCN2C(=O)OC(C)(C)C)c(=O)c2ccc(Cl)nc21 ?
Result: 8.4 µM

Q: And the next one, C#CCn1cc(C(=O)NCCCOC(=O)[C@@H](O)[C@@H](NC(=O)OC(C)(C)C)c2ccccc2)c(=O)c2ccc(Cl)nc21 ?
Result: 7.84 µM
